METHOD NOTES: chemical genetic growth profiling, strain panel (AID 1159580);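 note: tested at 20 µM; growth read once vehicle control cultures reached saturation at 30 °C; 1 = growth at the plate median or of vehicle wells; lower values mean less growth of the strain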
APPLIED CONDITIONS: S. cerevisiae deletion strains, growth OD, locus YNL067W, strain RPL9B, stronger effect = lower value
In all, about 5,500 compounds went through this assay and about 2,000 (36%) were called active. About 18% were inconclusive and are not listed. Some of the results follow.
Please use label 1 for normalized growth under 1 and label 0 for everything else, ties included.

COMPOUND	CATEGORY
OC1C(O)C(O)C(O)C(O)C1O (stereo not drawn)	label 1
O=C(O)/C=C(\CC(=O)O)C(=O)O	label 0
C[n+]1cc2c3c(ccc2c2ccc4cc5c(cc4c21)OCO5)OCO3	label 1
COc1ccc(-c2coc3cc(O)cc(O)c3c2=O)cc1	label 1
COc1ccc2c(=O)cc(-c3ccccc3OC)oc2c1	label 1
Nc1ccc(C(=O)Oc2ccccc2)c(O)c1	label 1
COc1cccc2c1cc([N+](=O)[O-])c1c(C(=O)O)cc3c(c12)OCO3	label 0
COc1ccc(-c2cc(=O)c3c(OC(C)=O)cc(OC(C)=O)cc3o2)cc1	label 1
COc1cccc(-c2cc(=O)c3ccc(OC)cc3o2)c1	label 1
C[C@@H]1CC[C@@]2(OC1)OC1C(O)C3C4CC[C@H]5C[C@H](O[C@@H]6O[C@H](CO)[C@H](O[C@@H]7O[C@H](CO)[C@@H](O)[C@H](O[C@@H]8OC[C@@H](O)[C@H](O)[C@H]8O)[C@H]7O[C@@H]7O[C@H](CO)[C@H](O)[C@H](O[C@@H]8O[C@H](CO)[C@@H](O)[C@H](O)[C@H]8O)[C@H]7O)[C@H](O)[C@H]6O)[C@H](O)C[C@]5(C)C4CC[C@]3(C)C1[C@@H]2C (stereo partly drawn)	label 1
CC(=O)Nc1ccc(OC(=O)c2ccccc2O)cc1	label 1
NC(=O)CC[C@@H](N)C(=O)O	label 0
COc1c2c(cc3c1OCO3)CC[N+](C)=C2	label 0
COc1ccc2cc3[n+](cc2c1OC)CCc1cc2c(cc1-3)OCO2	label 1
O=c1c2ccccc2oc2ccc(O)cc12	label 1

---

METHOD NOTES: chemical genetic growth profiling, strain panel (AID 1159580);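 note: tested at 20 µM; growth read once vehicle control cultures reached saturation at 30 °C; 1 = growth at the plate median or of vehicle wells; lower values mean less growth of the strain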
APPLIED CONDITIONS: S. cerevisiae deletion strains, growth OD, locus YNL020C, strain ARK1, stronger effect = lower value
Hit rate of the full screen: of about 5,500 compounds, about 2,000 (36%) were called active. Inconclusive results (about 18%) are left out. This is one part of the list.
# normalized growth per entry
READOUT TYPE: normalized growth

>>> df
                   compound_structure_string  quantitative_result
 0            Clc1ccc(-c2csc(Nc3ccccc3)n2)s1                0.419
 1     N#CCCCCOc1ccc2c(=O)cc(-c3ccccc3)oc2c1                0.956
 2  CN(C(=O)N(C)c1ccc(Cl)cc1C(=O)c1ccccc1Cl)c1ccc(Cl)cc1C(=O)c1ccccc1Cl                0.527
 3  N=c1ccc2nc3c(Cl)c4c(c(Cl)c3oc-2c1S(=O)(=O)O)Nc1ccc(N)c(S(=O)(=O)O)c1O4                 1.02
 4  COc1cc(NC(=S)Nc2ccccc2OC(F)(F)F)cc(C(F)(F)F)c1                0.965
 5         Clc1ccccc1N/N=C\Cc1nnnn1-c1ccccc1                0.878
 6  O=C(CSCc1nc(-c2ccc(Cl)cc2)cs1)N/N=C\c1cccs1                0.925
 7         C#Cc1cccc(N=Cc2cc(Cl)cc(Br)c2O)c1                 0.11
 8  CC(C)CSc1nnc(CSCc2nc(-c3ccc(Cl)cc3)cs2)n1C                0.941
 9     Fc1ccc(N/N=C\Cc2nnnn2-c2ccccc2)c(F)c1                0.536
10          Cc1csc2ncnc(N/N=C\c3ccccc3Cl)c12                0.958

Data provenance is PubChem BioAssay AID1159580.
